Biological target: T1, CRBN, Q96SW2;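 also: pooled lentiviral library of zinc finger degron-EGFP fusions in mCherry-positive Jurkat cells, FACS-sorted after compound exposure, with degron abundance counted by next-generation sequencing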
T1 chain: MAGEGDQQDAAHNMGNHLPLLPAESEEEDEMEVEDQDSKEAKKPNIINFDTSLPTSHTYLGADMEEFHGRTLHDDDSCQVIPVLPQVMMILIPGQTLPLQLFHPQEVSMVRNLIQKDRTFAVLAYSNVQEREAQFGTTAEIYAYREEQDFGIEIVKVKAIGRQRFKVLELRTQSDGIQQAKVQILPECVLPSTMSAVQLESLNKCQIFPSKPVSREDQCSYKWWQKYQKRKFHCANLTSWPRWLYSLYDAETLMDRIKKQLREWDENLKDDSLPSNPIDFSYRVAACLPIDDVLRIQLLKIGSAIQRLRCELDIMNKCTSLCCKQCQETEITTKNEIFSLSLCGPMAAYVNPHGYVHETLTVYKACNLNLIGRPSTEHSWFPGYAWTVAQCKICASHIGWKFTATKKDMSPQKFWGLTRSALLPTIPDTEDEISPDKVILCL
Experiment: log2 fold change of degron read counts, EGFP-low vs EGFP+ sorted cells (limma voom), compound-induced degradation; higher = more compound-induced degradation of the degron-EGFP fusion; degrons are variants of IKZF1/3 zinc finger 2; compound dose not given here
Settings: Jurkat; 18 h; compound: thalidomide
In all, about 8,300 sequences were measured (“log2 fold change of degron read counts, EGFP-low vs EGFP+ sorted cells (limma voom), compound-induced degradation”: median about -1.1, highest 2% from about 3.2 on). What follows is part of a selection rich in the highest values, with near analogues and random picks from the rest.
Field: log2 fold change of degron read counts. Provide a value for each of the sequences that follow.

Lab book: log2 fold change of degron read counts of FDCPICGHEFTQKGNLLRHIKL [46F_47D_49P_50I_52G_53H_54E_55F_67L_, Q9UKT9] noted as -2.07

I would be grateful if you could provide log2 fold change of degron read counts for each of the following entries.
1. FFCEICGHTFTQKGNLLRHIKL [46F_47F_49E_50I_52G_53H_54T_55F_67L_, Q9UKT9]
2. LKCEICGFTCTQKGNLLRHIKL [46L_47K_49E_50I_52G_53F_54T_55C_67L_, Q9UKT9]
3. FDCEICGAGFTQKGNLLRHIKL [46F_47D_49E_50I_52G_53A_54G_55F_67L_, Q9UKT9]
4. FACPICGAMFTQKGNLLRHIKL [46F_47A_49P_50I_52G_53A_54M_55F_67L_, Q9UKT9]

A.
1. -2.09
2. 0.124
3. -0.0656
4. 0.265

Dear colleague, could you please provide log2 fold change of degron read counts for the sequences listed below?
1. FMCPICGADFTQKGNLLRHIKL [46F_47M_49P_50I_52G_53A_54D_55F_67L_, Q9UKT9]
2. FQCPICGAFFTQKGNLLRHIKL [46F_47Q_49P_50I_52G_53A_54F_55F_67L_, Q9UKT9]
3. FQCPICGRPFTQKGNLLRHIKL [46F_47Q_49P_50I_52G_53R_54P_55F_67L_, Q9UKT9]
4. FACPQCGAHFTQKGNLLRHIKL [46F_47A_49P_50Q_52G_53A_54H_55F_67L_, Q9UKT9]
5. FSCNQCGAVFTQKGNLLRHIKL [46F_47S_49N_50Q_52G_53A_54V_55F_67L_, Q9UKT9]
6. FICEICGRIFTQKGNLLRHIKL [46F_47I_49E_50I_52G_53R_54I_55F_67L_, Q9UKT9]

A.
1. 1.23
2. 2.67
3. 2.92
4. -1.72
5. -1.8
6. -0.162

Please state log2 fold change of degron read counts for every sequence in the list that follows.
1. FFCPICGRMFTQKGNLLRHIKL [46F_47F_49P_50I_52G_53R_54M_55F_67L_, Q9UKT9]
2. FTCEICGAGFTQKGNLLRHIKL [46F_47T_49E_50I_52G_53A_54G_55F_67L_, Q9UKT9]
3. FMCPICGAMFTQKGNLLRHIKL [46F_47M_49P_50I_52G_53A_54M_55F_67L_, Q9UKT9]
4. FRCEICGAGFTQKGNLLRHIKL [46F_47R_49E_50I_52G_53A_54G_55F_67L_, Q9UKT9]

A.
1: -0.935; 2: 2.27; 3: 0.511; 4: 1.7

This collection of values is drawn from the supplement of paper PMC12645437.
